protocolSummary: Pharmacokinetic study in rats after oral administration of SYD extract and its single and combined TCM extracts (UPLC-MS/MS of plasma)
runParameters: male, Sprague-Dawley, rat, plasma, po, 2.14 g·kg^−1 (extract), Cmax, rat plasma, oral LJ + GU extract, n = 6

{"columns": ["chemicalSmiles", "unitLabel", "Cmax"],
 "data": [
  ["COC(=O)C1=CO[C@@H](O[C@@H]2O[C@H](CO)[C@@H](O)[C@H](O)[C@H]2O)[C@@H]2[C@@H](C)[C@@H](O)C[C@H]12", "ng/mL", 690],
  ["O=C(/C=C/c1ccc(O)c(O)c1)O[C@@H]1C[C@](O)(C(=O)O)C[C@@H](O)[C@H]1O", "ng/mL", 1070]
]}

* * *

protocolSummary: Pharmacokinetic study in rats after oral administration of SYD extract and its single and combined TCM extracts (UPLC-MS/MS of plasma)
runParameters: male, Sprague-Dawley, rat, plasma, po, 4.01 g·kg^−1 (extract), MRT(0–t), rat plasma, oral LJ + AS + GU extract, n = 6

{"columns": ["chemicalSmiles", "MRT last"],
 "data": [
  ["COC(=O)C1=CO[C@@H](O[C@@H]2O[C@H](CO)[C@@H](O)[C@H](O)[C@H]2O)[C@@H]2[C@@H](C)[C@@H](O)C[C@H]12", "8.06 h"],
  ["O=C1C[C@@H](c2ccc(O[C@@H]3O[C@H](CO)[C@@H](O)[C@H](O)[C@H]3O)cc2)Oc2cc(O)ccc21", "2.41 h"]
]}

* * *

protocolSummary: Pharmacokinetic study in rats after oral administration of SYD extract and its single and combined TCM extracts (UPLC-MS/MS of plasma)
runParameters: male, Sprague-Dawley, rat, plasma, po, 4.5 g·kg^−1 extract, AUC(0–t), rat plasma, oral LJ + SN extract, n = 6
We begin with a simple list: items and their reported AUC(0-t).
endpointLabel: AUC(0-t) (ng·h/mL)

{"columns": ["compound", "recordedValue"],
 "data": [
  ["COC(=O)C1=CO[C@@H](O[C@@H]2O[C@H](CO)[C@@H](O)[C@H](O)[C@H]2O)[C@@H]2[C@@H](C)[C@@H](O)C[C@H]12 [Loganin, loganin]", 1790],
  ["COc1ccc(CCO[C@@H]2O[C@H](CO[C@@H]3OC[C@H](O)[C@H](O)[C@H]3O)[C@@H](OC(=O)/C=C/c3ccc(O)c(OC)c3)[C@H](O[C@@H]3O[C@@H](C)[C@H](O)[C@@H](O)[C@H]3O)[C@H]2O)cc1O [Angoroside C, angoroside C]", 390],
  ["C[C@]1(OC(=O)/C=C/c2ccccc2)C[C@@H](O)[C@]2(O)C=CO[C@@H](O[C@@H]3O[C@H](CO)[C@@H](O)[C@H](O)[C@H]3O)[C@@H]21 [Harpagoside, harpagoside]", 60],
  ["O=C(/C=C/c1ccc(O)c(O)c1)O[C@@H]1C[C@](O)(C(=O)O)C[C@@H](O)[C@H]1O [Chlorogenic acid, chlorogenic acid]", 2800]
]}

* * *

We begin with a simple list: items and their reported Cmax.
protocolSummary: Pharmacokinetic study in rats after oral administration of SYD extract and its single and combined TCM extracts (UPLC-MS/MS of plasma)
runParameters: male, Sprague-Dawley, rat, plasma, po, 2.15 g/kg, Cmax, rat plasma, oral LJ extract 2.15 g/kg, n = 6

{"columns": ["molecule", "Cmax / ng/mL"],
 "data": [
  ["O=C(/C=C/c1ccc(O)c(O)c1)O[C@@H]1C[C@](O)(C(=O)O)C[C@@H](O)[C@H]1O [Chlorogenic acid, chlorogenic acid]", 2410],
  ["COC(=O)C1=CO[C@@H](O[C@@H]2O[C@H](CO)[C@@H](O)[C@H](O)[C@H]2O)[C@@H]2[C@@H](C)[C@@H](O)C[C@H]12 [Loganin, loganin]", 1140]
]}

* * *

We begin with a simple list: items and their reported Cmax.
protocolSummary: Pharmacokinetic study in rats after oral administration of SYD extract and its single and combined TCM extracts (UPLC-MS/MS of plasma)
runParameters: male, Sprague-Dawley, rat, plasma, po, 4.73 g/kg, Cmax, rat plasma, oral LJ + SN + GU extract 4.73 g/kg, n = 6

{"columns": ["molecule", "Cmax, ng/mL"],
 "data": [
  ["COc1ccc(CCO[C@@H]2O[C@H](CO[C@@H]3OC[C@H](O)[C@H](O)[C@H]3O)[C@@H](OC(=O)/C=C/c3ccc(O)c(OC)c3)[C@H](O[C@@H]3O[C@@H](C)[C@H](O)[C@@H](O)[C@H]3O)[C@H]2O)cc1O [Angoroside C, angoroside C]", 150],
  ["O=C(/C=C/c1ccc(O)c(O)c1)O[C@@H]1C[C@](O)(C(=O)O)C[C@@H](O)[C@H]1O", 1280],
  ["C[C@]1(OC(=O)/C=C/c2ccccc2)C[C@@H](O)[C@]2(O)C=CO[C@@H](O[C@@H]3O[C@H](CO)[C@@H](O)[C@H](O)[C@H]3O)[C@@H]21 [Harpagoside, harpagoside]", 80],
  ["COC(=O)C1=CO[C@@H](O[C@@H]2O[C@H](CO)[C@@H](O)[C@H](O)[C@H]2O)[C@@H]2[C@@H](C)[C@@H](O)C[C@H]12", 720]
]}

* * *

protocolSummary: Pharmacokinetic study in rats after oral administration of SYD extract and its single and combined TCM extracts (UPLC-MS/MS of plasma)
runParameters: male, Sprague-Dawley, rat, plasma, po, 3.38 g·kg^−1 (extract), AUC(0–∞), rat plasma, oral SN + GU extract, n = 6

{"columns": ["compound", "unitLabel", "AUC(0-inf)"],
 "data": [
  ["O=C1C[C@@H](c2ccc(O[C@@H]3O[C@H](CO)[C@@H](O)[C@H](O)[C@H]3O)cc2)Oc2cc(O)ccc21 [Liquiritin, liquiritin]", "µg·h/mL", 0.21],
  ["COc1ccc(CCO[C@@H]2O[C@H](CO[C@@H]3OC[C@H](O)[C@H](O)[C@H]3O)[C@@H](OC(=O)/C=C/c3ccc(O)c(OC)c3)[C@H](O[C@@H]3O[C@@H](C)[C@H](O)[C@@H](O)[C@H]3O)[C@H]2O)cc1O [Angoroside C, angoroside C]", "µg·h/mL", 0.42],
  ["C[C@]1(OC(=O)/C=C/c2ccccc2)C[C@@H](O)[C@]2(O)C=CO[C@@H](O[C@@H]3O[C@H](CO)[C@@H](O)[C@H](O)[C@H]3O)[C@@H]21 [Harpagoside, harpagoside]", "µg·h/mL", 0.11]
]}

* * *

protocolSummary: in vivo
runParameters: male, Sprague-Dawley, rat, po, 8.25 g/kg, Cmax

{"columns": ["molecule", "Cmax / ng/mL"],
 "data": [
  ["C=C[C@H]1[C@H](O[C@@H]2O[C@H](CO)[C@@H](O)[C@H](O)[C@H]2O)OC=C2C(=O)OCC[C@H]21 [Sweroside, sweroside]", 1970]
]}

* * *

protocolSummary: in vivo
runParameters: male, Sprague-Dawley, rat, po, 8.25 g/kg, AUC(0–∞)

{"columns": ["compound", "AUC(0-inf) (ng·h/mL)"],
 "data": [
  ["C=C[C@H]1[C@H](O[C@@H]2O[C@H](CO)[C@@H](O)[C@H](O)[C@H]2O)OC=C2C(=O)OCC[C@H]21 [Sweroside, sweroside]", 4530]
]}

* * *

protocolSummary: Pharmacokinetic study in rats after oral administration of SYD extract and its single and combined TCM extracts (UPLC-MS/MS of plasma)
runParameters: male, Sprague-Dawley, rat, plasma, po, 4.01 g·kg^−1 (extract), Cmax, rat plasma, oral LJ + AS + GU extract, n = 6

{"columns": ["chemicalSmiles", "Cmax / ng/mL"],
 "data": [
  ["COC(=O)C1=CO[C@@H](O[C@@H]2O[C@H](CO)[C@@H](O)[C@H](O)[C@H]2O)[C@@H]2[C@@H](C)[C@@H](O)C[C@H]12", 540],
  ["O=C1C[C@@H](c2ccc(O[C@@H]3O[C@H](CO)[C@@H](O)[C@H](O)[C@H]3O)cc2)Oc2cc(O)ccc21", 210]
]}

* * *

We begin with a simple list: items and their reported AUC(0-inf).
protocolSummary: Pharmacokinetic study in rats after oral administration of SYD extract and its single and combined TCM extracts (UPLC-MS/MS of plasma)
runParameters: male, Sprague-Dawley, rat, plasma, po, 8.25 g/kg, AUC(0–∞), rat plasma, oral SYD extract 8.25 g/kg, n = 6
endpointLabel: AUC(0-inf) (ng·h/mL)

{"columns": ["molecule", "recordedValue"],
 "data": [
  ["COC(=O)C1=CO[C@@H](O[C@@H]2O[C@H](CO)[C@@H](O)[C@H](O)[C@H]2O)[C@@H]2[C@@H](C)[C@@H](O)C[C@H]12 [Loganin, loganin]", 2170],
  ["O=C(/C=C/c1ccc(O)c(O)c1)O[C@@H]1C[C@](O)(C(=O)O)C[C@@H](O)[C@H]1O [Chlorogenic acid, chlorogenic acid]", 3650],
  ["COc1ccc(CCO[C@@H]2O[C@H](CO[C@@H]3OC[C@H](O)[C@H](O)[C@H]3O)[C@@H](OC(=O)/C=C/c3ccc(O)c(OC)c3)[C@H](O[C@@H]3O[C@@H](C)[C@H](O)[C@@H](O)[C@H]3O)[C@H]2O)cc1O [Angoroside C, angoroside C]", 310],
  ["C[C@]1(OC(=O)/C=C/c2ccccc2)C[C@@H](O)[C@]2(O)C=CO[C@@H](O[C@@H]3O[C@H](CO)[C@@H](O)[C@H](O)[C@H]3O)[C@@H]21 [Harpagoside, harpagoside]", 140]
]}
